system: MCF10A; experiment: percent viability (nuclei count relative to siNT); higher = more viable cells; settings: 20 nM; 72 h
measurement kind: percent viability

• UCCUGUCCCUGUCUCCUACAG [hsa-miR-6748-3p] = 47%
• CUCUAGAGGGAAGCACUUUCUC [hsa-miR-518f-5p] = 33.5%
• UGGGGAAGGCUUGGCAGGGAAGA [hsa-miR-6780b-5p] = 25.6%
• ACCCAGGUUCCCUCUGGCCGCA [hsa-miR-4726-3p] = 23.9%
• UCUGAGGCCUGCCUCUCCCCA [hsa-miR-4649-3p] = 54.4%
• CAACAAAUCACAGUCUGCCAUA [hsa-miR-7-1-3p] = 98.9%
• UUUGGGAUUGACGCCACAUGUCU [hsa-miR-6513-5p] = 72.6%
• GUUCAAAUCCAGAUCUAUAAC [hsa-miR-607] = 111%
• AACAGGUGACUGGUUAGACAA [hsa-miR-552] = 123%
• UGUAGAUACGAGCACCAGCCAC [hsa-miR-3935] = 38.5%
• CACACAGGAAAAGCGGGGCCCUG [hsa-miR-6768-5p] = 55.7%
• AGACACAUUUGGAGAGGGAACC [hsa-miR-642a-3p] = 90.2%
• UAGGGGUGGGGGAAUUCAGGGGUGU [hsa-miR-6782-5p] = 26.5%
• UGGGUUCCUGGCAUGCUGAUUU [hsa-miR-23b-5p] = 59.2%
• ACUGCAGUGAAGGCACUUGUAG [hsa-miR-17-3p] = 70.9%
• CCUCCGUGUUACCUGUCCUCUAG [hsa-miR-3605-3p] = 92.7%
• AGGAGGCAUCUUGAGAAAUGGA [hsa-miR-3612] = 16.9%
• UCAGUGCAUGACAGAACUUGG [hsa-miR-152] = 145%
• AGGUAGAAUGAGGCCUGACAU [hsa-miR-4650-3p] = 33.4%
• UGACCCACCCCUCUCCACCAG [hsa-miR-7114-3p] = 35.3%
• ACGUUUGAAUGCUGUACAAGGC [hsa-miR-5707] = 185%
• AAAGUGCUUCCUUUUAGAGGGU [hsa-miR-520c-3p] = 74.6%
• AAUAAUAUCACAGUAGGUGUAC [hsa-miR-5692c] = 133%
• UACAGCCCUGUGAUCUUUCCAG [hsa-miR-6856-3p] = 74.9%

Ref: the supplement of paper PMC10899765
